Molecular target: UniProt Q12931
Sequence (Q12931 60-704): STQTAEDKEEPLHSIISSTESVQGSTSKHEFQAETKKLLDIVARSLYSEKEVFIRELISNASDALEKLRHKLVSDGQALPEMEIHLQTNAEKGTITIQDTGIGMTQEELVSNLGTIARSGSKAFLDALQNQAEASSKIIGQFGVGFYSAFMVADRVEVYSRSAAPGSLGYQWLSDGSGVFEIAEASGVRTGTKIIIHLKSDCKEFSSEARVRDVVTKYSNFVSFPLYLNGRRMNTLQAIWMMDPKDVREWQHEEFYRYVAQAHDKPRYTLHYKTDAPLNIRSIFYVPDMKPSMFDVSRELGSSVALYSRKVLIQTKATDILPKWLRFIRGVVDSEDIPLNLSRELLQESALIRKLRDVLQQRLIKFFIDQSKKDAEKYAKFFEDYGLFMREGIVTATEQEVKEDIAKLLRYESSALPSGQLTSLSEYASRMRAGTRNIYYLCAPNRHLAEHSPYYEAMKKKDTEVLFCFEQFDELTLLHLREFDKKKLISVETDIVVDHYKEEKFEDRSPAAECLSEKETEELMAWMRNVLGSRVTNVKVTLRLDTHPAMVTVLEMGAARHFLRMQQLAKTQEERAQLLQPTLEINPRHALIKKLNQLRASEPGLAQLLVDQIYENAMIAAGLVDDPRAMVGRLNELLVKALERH
Test: ADP Glo assay (ATPase activity of TRAP1)
Conditions: 150 nM Trap1, 20 µM ATP, concentration for half maximal activation; read-out: ADP GLO DRC: GeoMean EC50
Procedure: Potency of test compounds to modulate the ATPase activity of TRAP1 enzyme was evaluated using ADP Glo assay. The assay is based on quantification of the ADP generated from ATP in the ATPase reaction. […] Second, the Kinase Detection Reagent is added to simultaneously convert ADP to ATP and allow the newly synthesized ATP to be measured using a luciferase/luciferin reaction. […]
measured_parameter: EC50

{"compound": "CN1CCc2scc(C(=O)Nc3ccc4c(c3)S(=O)(=O)N(c3ccc(C(F)(F)F)cc3)CCO4)c2C1 [Compound 2472]", "target": "UniProt Q12931", "measured_parameter": "EC50", "endpoint_result": "30 to 100 µM"}
{"compound": "Cc1ncn(C)c1C(=O)Nc1ccc2c(c1)S(=O)(=O)N(c1ccc(C(F)(F)F)cc1)CCO2 [Compound 2343]", "target": "UniProt Q12931", "measured_parameter": "EC50", "endpoint_result": "30 to 100 µM"}
{"compound": "O=C(Nc1ccc2c(c1)S(=O)(=O)N(c1ccc(C(F)(F)F)cc1)CCO2)c1ccncc1 [Compound 2234]", "target": "UniProt Q12931", "measured_parameter": "EC50", "endpoint_result": "20 to 30 µM"}
{"compound": "Cn1cc(C(=O)Nc2ccc3c(c2)S(=O)(=O)N(c2ccc(C(F)(F)F)cc2)CCO3)c2cccnc21 [Compound 2451]", "target": "UniProt Q12931", "measured_parameter": "EC50", "endpoint_result": "< 20 µM"}
{"compound": "O=C(Nc1ccc2c(c1)S(=O)(=O)N(c1ccc(C(F)(F)F)cc1)CCO2)c1cc(=O)cco1 [Compound 2190]", "target": "UniProt Q12931", "measured_parameter": "EC50", "endpoint_result": "30 to 100 µM"}
{"compound": "O=C(Nc1ccc2c(c1)S(=O)(=O)N(c1ccc(C(F)(F)F)cc1)CCO2)c1ccc(O)nc1 [Compound 2299]", "target": "UniProt Q12931", "measured_parameter": "EC50", "endpoint_result": "30 to 100 µM"}
{"compound": "O=C(Nc1ccc2c(c1)S(=O)(=O)N(c1ccc(C(F)(F)F)cc1)CCO2)c1cccc(CO)n1 [Compound 2291]", "target": "UniProt Q12931", "measured_parameter": "EC50", "endpoint_result": "< 20 µM"}
{"compound": "Cc1ncoc1C(=O)Nc1ccc2c(c1)S(=O)(=O)N(c1ccc(C(F)(F)F)nc1)CCO2 [Compound 2388]", "target": "UniProt Q12931", "measured_parameter": "EC50", "endpoint_result": "30 to 100 µM"}
{"compound": "Cc1cnc(C(=O)Nc2ccc3c(c2)S(=O)(=O)N(c2ccc(C(F)(F)F)cc2)CCO3)nc1 [Compound 2210]", "target": "UniProt Q12931", "measured_parameter": "EC50", "endpoint_result": "< 20 µM"}
{"compound": "CN1CCCCC1C(=O)Nc1ccc2c(c1)S(=O)(=O)N(c1ccc(C(F)(F)F)cc1)CCO2 (stereo not drawn) [Compound 2402]", "target": "UniProt Q12931", "measured_parameter": "EC50", "endpoint_result": "30 to 100 µM"}
{"compound": "CCc1ncccc1C(=O)Nc1ccc2c(c1)S(=O)(=O)N(c1ccc(C(F)(F)F)cc1)CCO2 [Compound 2344]", "target": "UniProt Q12931", "measured_parameter": "EC50", "endpoint_result": "< 20 µM"}
{"compound": "Cc1ncnc(C)c1C(=O)Nc1ccc2c(c1)S(=O)(=O)N(c1ccc(C(F)(F)F)cc1)CCO2 [Compound 2337]", "target": "UniProt Q12931", "measured_parameter": "EC50", "endpoint_result": "30 to 100 µM"}
{"compound": "O=C(Nc1ccc2c(c1)S(=O)(=O)N(c1ccc(C(F)(F)F)cc1)CCO2)c1cnc[nH]1 [Compound 2075]", "target": "UniProt Q12931", "measured_parameter": "EC50", "endpoint_result": "20 to 30 µM"}
{"compound": "O=C(Nc1ccc2c(c1)S(=O)(=O)N(c1ccc(C(F)(F)F)cc1)CCO2)c1ccnc(CO)c1 [Compound 2290]", "target": "UniProt Q12931", "measured_parameter": "EC50", "endpoint_result": "30 to 100 µM"}
{"compound": "NCc1cccc(C(=O)Nc2ccc3c(c2)S(=O)(=O)N(c2ccc(C(F)(F)F)cc2)CCO3)n1 [Compound 2513]", "target": "UniProt Q12931", "measured_parameter": "EC50", "endpoint_result": "30 to 100 µM"}

The measured values listed here are drawn from patent US20230218632A1.
